Source listed as PubChem BioAssay AID1963848.

- Test system: 379773-124-R-J2-PDC spheroid viability;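 also: spheroids exposed to drugs for seven days before readout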
- PROTOCOL_SUMMARY: Anticancer human tumor 379773-124-R-J2-PDC patient-derived endometrial carcinoma cell line growth inhibition [POLQ]
- EXPERIMENTAL_SETUP: second compound 1 µM; first compound 3.16 µM; hits give low values; spheroids with HUVEC and MSC
Condition met if viability, T/C is below 30%. Condition not met if not; exact matches included in Condition not met.

A selection of reference data follows.
COMPOUND	LABEL_CLASS
CC1COCCN1c1cc(C2(S(C)(=N)=O)CC2)nc(-c2ccnc3[nH]ccc23)n1 (stereo unspecified) + Cc1cccc(N(C)C(=O)C2C(O)CCN2c2nc(C)cc(C(F)(F)F)c2C#N)c1	Condition not met
C#Cc1c(F)ccc2cc(O)cc(-c3ncc4c(N5CC6CCC(C5)N6)nc(OCC56CCCN5CC(F)C6)nc4c3F)c12 (stereo unspecified) + COC1C(OC(N)=O)C(O)C(Oc2ccc3c(O)c(NC(=O)c4ccc(O)c(CC=C(C)C)c4)c(=O)oc3c2C)OC1(C)C	Condition not met
COc1cccc2c1C(=O)c1c(O)c3c(c(O)c1C2=O)CC(O)(C(=O)CO)CC3OC1CC(N)C(O)C(C)O1 (stereo unspecified) + Cc1cccc(N(C)C(=O)C2C(O)CCN2c2nc(C)cc(C(F)(F)F)c2C#N)c1	Condition met

(Q) Dear colleague, could you confirm whether viability, T/C of CC1COCCN1c1cc(C2(S(C)(=N)=O)CC2)nc(-c2ccnc3[nH]ccc23)n1 (stereo unspecified) + Nc1ccc(C#CCN(C(=O)Cc2ncc(C(F)(F)F)cc2C(F)(F)F)c2ccc(F)cc2)nn1 falls below 30%? Thanks.
(A) Condition not met

(Q) Item: O=c1[nH]cc(F)c(=O)[nH]1 + Nc1ccc(C#CCN(C(=O)Cc2ncc(C(F)(F)F)cc2C(F)(F)F)c2ccc(F)cc2)nn1
(A) Condition not met
